Measured values drawn from ChEMBL document CHEMBL1201862 for this set.

- Test system: U-251
- Assay Summary: NCI tumour cell line growth inhibition, 48 h
Activity calls are given as the source filed them. No stated cut-off is given here; in the data, active = GI50 up to about 1.1 µM and inactive = higher.
Readout Name: GI50

Measured GI50 of Cc1ccc(C#CS(=O)(=O)C(F)(F)F)cc1 : > 100 µM (inactive)

Measured GI50 of CC(C)(C)/N=c1/n(C(C)(C)C)oc(=O)n1C(C)(C)C : > 100 µM (inactive)

Measured GI50 of N#Cc1nc(C(=O)c2ccccc2)oc1N : > 100 µM (inactive)

* * *

- Test system: SK-OV-3
- Assay Summary: NCI tumour cell line growth inhibition, 48 h
Calls of active or inactive are those of the source. No stated cut-off is given here; in the data, active = GI50 up to about 1.1 µM and inactive = higher.
Log the outcome using a class from active, inactive

# input Recorded test call requested for O=c1c2cccnc2[nH]c2ccc3scnc3c12
# output inactive

# input Recorded test call requested for C#CC1=CC(=O)C(OC)=CC1=O
# output inactive

# input Recorded test call requested for CC(C(=O)NCCNC(=O)CCCC(=O)N(C)O)C(=O)NCCNC(=O)CCCC(=O)N(C)O
# output inactive

# input Recorded test call requested for CN1CC[C@]2(C)c3c(O)cccc3CC3CCCC1C32C (stereo partly specified)
# output inactive

# input Recorded test call requested for CN(C)C(C1=C(O)C(c2ccccc2)N(c2ccccc2)C1=O)N1CCOCC1 (stereo unspecified)
# output inactive

# input Recorded test call requested for c1ccc2c(c1)NCc1cc3ccccc3nc1O2
# output inactive

# input Recorded test call requested for O=C1NC(=O)C(CCO)(c2ccccc2)C(=O)N1
# output inactive

# input Recorded test call requested for O=c1c(Cc2ccc(Cl)cc2)nnc2sc(-c3ccc(-c4ccc(Cl)cc4Cl)o3)nn12
# output inactive

# input Recorded test call requested for CC1=CC(=O)/C(=C/N2CCNC2=S)C(=O)O1
# output inactive

# input Recorded test call requested for CCOC(=O)c1c[nH]c2cc3c(cc2c1=O)CCS3(=O)=O.CCOC(=O)c1c[nH]c2ccc3c(c2c1=O)S(=O)(=O)CC3
# output inactive

# input Recorded test call requested for O=C(O)c1ccc(Nc2c3ccccc3nc3ccccc23)cc1
# output inactive

# input Recorded test call requested for CCSc1[nH]c(NC(=S)NC(=O)c2ccccc2Cl)c(C(N)=O)c1C(N)=O
# output inactive

# input Recorded test call requested for CC(=O)c1c(C(F)(F)F)[n+]([O-])c2cc(Cl)c(Cl)cc2[n+]1[O-]
# output inactive

# input Recorded test call requested for CCOC(=O)C(=Cn1c(=S)[nH]c2ccc([N+](=O)[O-])cc21)C(=O)OCC
# output inactive

# input Recorded test call requested for O=C1C2CCCCC2C(=O)N1n1c(Cc2ccccc2)n[nH]c1=O (stereo unspecified)
# output inactive

# input Recorded test call requested for N#CC1=C(O)NC(O)=C(C#N)C1c1c(Cl)cccc1Cl
# output inactive

# input Recorded test call requested for CCC1(O)CC(OC2CC(N(C)C)C(OC3CC(O)C(OC4OC(C)C(=O)C=C4N)C(C)O3)C(C)O2)c2c(O)c3c(c(O)c2C1C(=O)OC)C(=O)c1cccc(O)c1C3=O (stereo unspecified)
# output active

# input Recorded test call requested for C/C=C/C(C#N)(/C=C/c1ccccc1)OP1(=O)OC(c2ccccc2)C(C)N1C (stereo unspecified)
# output inactive

# input Recorded test call requested for Cc1cc(/N=C/c2ccc(N(C)C)cc2)n(-c2ccccc2)n1
# output inactive

# input Recorded test call requested for CC(C)(C)OC(=O)N1C(OP(=O)(Oc2ccccc2)Oc2ccccc2)=CSc2ccccc21
# output inactive

# input Recorded test call requested for O=c1oc2cc(/N=C/c3ccc4c(c3)OCO4)ccc2c2ccccc12
# output inactive
